Experiment: NCI Yeast Anticancer Drug Screen. Data for the mlh1 rad18 strain (AID 175)
Details: S. cerevisiae mlh1 rad18 strain growth inhibition; at 50.0 µM
About 79,000 compounds went through this panel and 15% of them were active in at least one assay; those are over-represented in the sample as a whole. Calls of active or inactive are those of the source. No stated cut-off is given here; in the data, active means growth inhibition above about 70%; inactive means the rest.
Bench note: report the call from Yes = active, No = inactive

{"MOLECULE": "O=S(=O)(OCCCCCCCCCCOS(=O)(=O)c1ccc(Cl)cc1)c1ccc(Cl)cc1", "CATEGORY": "No"}
{"MOLECULE": "CC1(C)CC[C@]2(C(=O)O)CC[C@]3(C)C(=CC[C@@H]4[C@@]5(C)CC[C@H](OC6OC(CO)C(O)C(O)C6OC6OC(CO)C(O)C(O)C6O)C(C)(C)[C@@H]5CC[C@]43C)[C@@H]2C1 (some centres not stated)", "CATEGORY": "Yes"}
{"MOLECULE": "CC1CC(=O)Oc2cc(O)c(O)cc21 (configuration not stated)", "CATEGORY": "No"}
{"MOLECULE": "CC[C@]12C=CCN3CCC4(c5cc([C@@]6(C(=O)OC)CC7CN(CCc8c6[nH]c6ccccc86)C[C@@H]6CCC[C@H]76)c(OC)cc5N(C)C4[C@](O)(C(=O)OC)C1OC(C)=O)C32 (some centres not stated)", "CATEGORY": "No"}
{"MOLECULE": "CC(CN(C)C)C(=O)C(=Cc1ccccc1)C(=O)C(C)CN(C)C (configuration not stated)", "CATEGORY": "No"}

# input What did this assay record as the result for `COc1c2occc2cc2ccc(=S)oc12` ?
# output No

# input Next: `CSc1n[nH]c(-c2cccs2)n1`
# output No

# input Next: `CC1=CC(C)(C)SC(=S)N1`
# output No

# input Next: `Nc1ccc(CCCCOc2ccccc2)cc1`
# output Yes

# input Next: `O=[N+]([O-])c1ccc(N=CNc2ccc([N+](=O)[O-])cc2)cc1`
# output No

# input Next: `O=C(O)c1cc(-c2ccccc2Cl)nc2ccccc12`
# output No

# input Next: `O=C(Nc1ccc(Cl)cc1)OCCSc1nc2ccccc2s1`
# output No

----------
Parameter: growth inhibition. Scope: all listed entries.
Assay: NCI Yeast Anticancer Drug Screen. Data for the sgs1 mgt1 strain (AID 161);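 further: 0% = growth of cultures given vehicle only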
Conditions: S. cerevisiae sgs1 mgt1 strain, at 50.0 µM, stronger effect = higher value
The panel holds about 79,000 compounds, 15% with a hit somewhere; the sample as a whole holds those more often.
Could you give me the number in %? Just the number is fine.

Here are 8 compounds together with their reported answers.
{"COMPOUND": "CCN(CC)CCSc1cc(C)c2ccc(N)nc2n1", "DISPLAY_UNIT": "%", "growth inhibition": 6.6}
{"COMPOUND": "O=c1nc(Nc2ccccc2)ccn1C1OC(CO)C(O)C1O (stereo not drawn)", "DISPLAY_UNIT": "%", "growth inhibition": 0.2}
{"COMPOUND": "CCOC(C)C1C2CCCCC21 (stereo not drawn)", "DISPLAY_UNIT": "%", "growth inhibition": 6.2}
{"COMPOUND": "CN(CC(O)CN1CCCc2ccccc21)C1CCCCC1 (stereo not drawn)", "DISPLAY_UNIT": "%", "growth inhibition": 17.9}
{"COMPOUND": "CC(C)(C)OC(=O)NC(CS(=O)(=O)O)C(=O)O (stereo not drawn)", "DISPLAY_UNIT": "%", "growth inhibition": -2.4}
{"COMPOUND": "COc1ccc(C2c3cc4c(cc3OC(N3CCOCC3)C2C)OCO4)cc1 (stereo not drawn)", "DISPLAY_UNIT": "%", "growth inhibition": -20.2}
{"COMPOUND": "Cc1ccc(NC(=O)OCC2CC3C=CC2C3)cc1NC(=O)OCC1CC2C=CC1C2 (stereo not drawn)", "DISPLAY_UNIT": "%", "growth inhibition": -14.8}
{"COMPOUND": "CCCCCCOC(=O)C(C)(O)C(Cl)c1ccccc1 (stereo not drawn)", "DISPLAY_UNIT": "%", "growth inhibition": -5.4}

# input Please report the recorded growth inhibition for COc1cc2ccc1-c1cc(ccc1O)CC1c3cc4c(cc3CCN1C)Oc1c(OC)cc3c(c1O4)C(C2)N(C)CC3 (stereo not drawn) .
# output -18.5

# input Next: `CCn1c(C)[n+](CCCOS(=O)(=O)[O-])c2ccccc21`
# output -14.4

# input Next: `Oc1ccc2ccccc2c1Br`
# output 40.2

# input Next: CCOC(=O)C1SCSCC1=O (stereo not drawn)
# output -5.55

# input Next: CCCCCCCCCCCCCCCCNc1nc(=O)n(C2CC(O)C(COP(=O)(O)OC3CC(n4cc(F)c(=O)[nH]c4=O)OC3CO)O2)cc1F (stereo not drawn)
# output -25.9

# input Next: `O=Nc1c(O)c(S(=O)(=O)O)cc2cc(S(=O)(=O)O)ccc12`
# output 51.1

# input Next: `O=C(Nc1nc(C23CC4CC(CC(C4)C2)C3)cs1)c1c(O)c2ccccc2[nH]c1=O`
# output -8.75

----------
Parameter: growth inhibition. Scope: all listed entries.
Assay: NCI Yeast Anticancer Drug Screen. Data for the mec2-1 strain (AID 157)
Settings: S. cerevisiae mec2-1 strain, at 50.0 µM, stronger effect = higher value
The panel holds about 79,000 compounds, 15% with a hit somewhere; the sample as a whole holds those more often.
Could you give me the number in %? Just the number is fine.

{"MOLECULE": "CCCCCCCCCCCCCCNCCCCCCCCCCCCCC", "ENDPOINT_VALUE": -9}
{"MOLECULE": "CC1=C(C)C2(C)C(C)C2(C)C1C (centres undefined)", "ENDPOINT_VALUE": -13.3}
{"MOLECULE": "Nc1ccc[nH]c1=O", "ENDPOINT_VALUE": 4}
{"MOLECULE": "Nc1nc(N)nc(CC(=O)O)n1", "ENDPOINT_VALUE": -22.7}

# input Please report the recorded growth inhibition for CC(=O)NC(Cc1ccccc1)C(=O)NN (centres undefined) .
# output -8.3

# input Next: C[N+](C)(C)C(C1=CCCC1=O)c1ccccc1 (centres undefined)
# output 43.3

# input Next: O/N=C1\C(=C\c2ccc3c(c2)OCCO3)CCCC1C(NO)c1ccc2c(c1)OCCO2 (centres undefined)
# output 16.7

----------
Test: NCI Yeast Anticancer Drug Screen. Data for the mlh1 rad18 strain (AID 175)
Details: S. cerevisiae mlh1 rad18 strain growth inhibition; at 50.0 µM; stronger effect = higher value
Compounds without any hit were thinned out: in the full panel of roughly 79,000, 15% have a hit.
QUANTITY_NAME: growth inhibition (%)
Could you give me the number in %? Just the number is fine.

Here are 8 compounds together with their reported answers.
{"COMPOUND": "CCCCc1c2c(nc3c1CCc1cc4c(nc1-3)-c1nc3c(c(CCCC)c1CC4)CCC/C3=C\\c1ccccc1)/C(=C/c1ccccc1)CCC2", "ENDPOINT_VALUE": 2.8}
{"COMPOUND": "O=C1CCCC2OC2[C@H]2CCCCCC[C@@H]12 (stereo not given in full)", "ENDPOINT_VALUE": 7.85}
{"COMPOUND": "O=[N+]([O-])c1ccc(C(O)C(c2ccccc2)S(=O)(=O)N2CCCCC2)cc1 (stereo not given)", "ENDPOINT_VALUE": 24.9}
{"COMPOUND": "CCCCCCCCCC(CC(OC)OCC)OC (stereo not given)", "ENDPOINT_VALUE": -24.6}
{"COMPOUND": "CC(=O)N(c1ccccn1)c1ccccn1", "ENDPOINT_VALUE": -31.2}
{"COMPOUND": "CC1=C(C(=O)CC(=O)C(=O)NC2C3CC4CC(C3)CC2C4)Sc2ccccc2N1 (stereo not given)", "ENDPOINT_VALUE": -21}
{"COMPOUND": "CCOC(=O)CCC(C(=O)OCC)N1C(=O)c2ccccc2C1=O (stereo not given)", "ENDPOINT_VALUE": -1.7}
{"COMPOUND": "COC(=O)CC1C=CC(OC)[C@@]2(C)C(=O)C(OC)=CC(=O)[C@@H]12 (stereo not given in full)", "ENDPOINT_VALUE": -3.45}

# input Please report the recorded growth inhibition for O=C1NC(=O)C2(N1)c1ccccc1-c1ccc(Br)cc12 (stereo not given) .
# output -2.7

# input Next: `CC[n+]1nc2ccccc2c(=Nc2ccccc2[N+](=O)[O-])[n-]1`
# output 7.15

# input Next: `O=C1c2cccc([N+](=O)[O-])c2C(=O)c2cccc(Cl)c21`
# output 42.9

# input Next: `Cc1[nH]n(C(=O)c2ccc(Cl)cc2)c(=O)c1/C=C1\C(O)=CC(=O)c2ccccc21`
# output 16.9

----------
Parameter: growth inhibition. Scope: all listed entries.
Assay: NCI Yeast Anticancer Drug Screen. Data for the mec2-1 strain (AID 157)
Settings: S. cerevisiae mec2-1 strain, at 50.0 µM, stronger effect = higher value
Experimental: Growth inhibition of yeast strains with defined genetic alterations is measured as a screen for potential anti-cancer activity. Selected strains with alterations in DNA damage repair or cell cycle control were exposed to compounds and growth inhibition was measured relative to vehicle treated controls. The strain used in this assay is mec2-1
Compounds without any hit were thinned out: in the full panel of roughly 79,000, 15% have a hit. Where a SMILES comes first, the peptide text is derived from it.
Could you give me the number in %? Just the number is fine.

Here are 10 molecules together with their reported answers.
{"MOLECULE": "O=C(CC(c1ccccc1)C(Br)[N+](=O)[O-])c1ccccc1 (stereo not given)", "QUANTITY_NAME": "growth inhibition", "ENDPOINT_VALUE": -0.35}
{"MOLECULE": "CCCCc1ccc2nc3cc4ccccc4cc3nc2c1", "QUANTITY_NAME": "growth inhibition", "ENDPOINT_VALUE": 51.1}
{"MOLECULE": "CC12CCC(O)CC1=CCC1C2CCC2(C)C1CCC21SCCS1 (stereo not given)", "QUANTITY_NAME": "growth inhibition", "ENDPOINT_VALUE": 9.7}
{"MOLECULE": "Cc1sc2nc3n(c(=O)c2c1C)N=CN(c1ccc(F)cc1)C3", "QUANTITY_NAME": "growth inhibition", "ENDPOINT_VALUE": -0.45}
{"MOLECULE": "O=C(O)C(Br)C(O)c1ccccc1 (stereo not given)", "QUANTITY_NAME": "growth inhibition", "ENDPOINT_VALUE": -2.85}
{"MOLECULE": "CC(=O)N1CC(C)CC2OC3(CCC4C5CCC6CC(=O)CCC6(C)C5C(=O)C4C3C)C(C)C21 (stereo not given)", "QUANTITY_NAME": "growth inhibition", "ENDPOINT_VALUE": -13.1}
{"MOLECULE": "COc1ccc(C(c2ccccc2)c2ccc(OC)cc2)cc1", "QUANTITY_NAME": "growth inhibition", "ENDPOINT_VALUE": -13}
{"MOLECULE": "O=C1NC2(CCN(CCc3ccccc3)CC2)Oc2ccccc21", "QUANTITY_NAME": "growth inhibition", "ENDPOINT_VALUE": -10.2}
{"MOLECULE": "CC(=O)Oc1ccc2c(c1)CC[C@@H]1C2[C@@H](O[N+](=O)[O-])C[C@@]2(C)C1CC[C@@H]2O[N+](=O)[O-] (stereo not given in full)", "QUANTITY_NAME": "growth inhibition", "ENDPOINT_VALUE": 7.9}
{"MOLECULE": "COC(=O)Nc1nc2ccc(-n3c(C)nc4ccccc4c3=O)cc2[nH]1", "QUANTITY_NAME": "growth inhibition", "ENDPOINT_VALUE": -0.45}

# input Please report the recorded growth inhibition for CCC(C)C(N)C(=O)N1CCCC1C(=O)O (stereo not drawn) (H-Ile-Pro-OH; configuration not given here) .
# output -4.65

# input Next: `O=C(O)/C=C\C(=O)Nc1ccc(C(=O)NCC(=O)O)cc1`
# output -4.8

# input Next: CC(C)C1c2ccccc2C(=O)C1C(N)=O (stereo not given)
# output -11.4

# input Next: `Cc1ccc(N2CCN(c3ccc([N+](=O)[O-])cc3)CC2)cc1Cl`
# output 7.15

# input Next: `CC(=O)Nc1ccc(C)cc1[N+](=O)[O-]`
# output 1.15
